Tested on: Caco-2
protocol.notes: relative viability EC50 (midpoint between 100% and the lowest measured viability); higher = less toxic
study.conditions: 72 h
measure: relative viability EC50

What relative viability EC50 value was documented for this compound, c1ccc(C2CC2)c(OCC2=NCCN2)c1 [cirazoline] ? > 10 µM

Another compound to look at: Cc1ccnc2c1NC(=O)c1cccnc1N2C1CC1 [nevirapine] > 10 µM

Another compound to look at: CCCOc1ccc2c(c1)CC[C@@H]1[C@@H]2CC[C@]2(C)[C@@H](OC)CC[C@@H]12 [promestriene] > 10 µM

Another compound to look at: NCCCCN [putrescine] > 10 µM

Another compound to look at: O=C(O)c1ccc(-c2ccc3cc(O)c(C45CC6CC(CC(C6)C4)C5)cc3c2)cc1 [CD-1530] > 10 µM
